tested on: Peroxisome proliferator-activated receptor gamma (Homo sapiens)
Sequence (P37231 whole entry): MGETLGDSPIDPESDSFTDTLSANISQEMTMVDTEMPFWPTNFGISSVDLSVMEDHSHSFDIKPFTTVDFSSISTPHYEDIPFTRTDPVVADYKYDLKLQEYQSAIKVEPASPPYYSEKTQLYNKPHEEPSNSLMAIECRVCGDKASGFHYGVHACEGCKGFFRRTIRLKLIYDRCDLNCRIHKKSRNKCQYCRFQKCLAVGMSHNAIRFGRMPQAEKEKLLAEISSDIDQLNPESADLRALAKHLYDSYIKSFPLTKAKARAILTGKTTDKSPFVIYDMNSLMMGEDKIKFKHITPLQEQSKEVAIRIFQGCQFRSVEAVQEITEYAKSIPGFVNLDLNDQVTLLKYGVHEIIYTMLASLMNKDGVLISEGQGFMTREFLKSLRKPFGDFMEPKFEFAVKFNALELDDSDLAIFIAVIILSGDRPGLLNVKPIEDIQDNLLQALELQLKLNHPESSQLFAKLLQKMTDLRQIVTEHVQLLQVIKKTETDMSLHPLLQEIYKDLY
experimental readout: EC50

Worked examples follow.
>>> result("Cc1cc2cc(C(C#Cc3ccc(C)s3)/C=C\\COc3ccc(OCC(=O)O)c(C)c3)ccc2o1 (stereo not drawn)")
"> 10 µM"
>>> result("Cc1ccc(-c2ccc(/C(C#Cc3ccccc3)=C/COc3ccc(OCC(=O)O)c(C)c3)cc2)s1")
"> 10 µM"

Please turn your attention to the following entry.
Req: Need EC50 of Cc1cc2cc(C(C#Cc3ccc(F)cc3)/C=C\COc3ccc(OCC(=O)O)c(C)c3)ccc2o1 (stereo not drawn) , thanks.
Resp: > 10 µM

###

Entries and their pEC50
tested on: Peroxisome proliferator-activated receptor alpha (Homo sapiens)
Sequence (Q07869 whole entry): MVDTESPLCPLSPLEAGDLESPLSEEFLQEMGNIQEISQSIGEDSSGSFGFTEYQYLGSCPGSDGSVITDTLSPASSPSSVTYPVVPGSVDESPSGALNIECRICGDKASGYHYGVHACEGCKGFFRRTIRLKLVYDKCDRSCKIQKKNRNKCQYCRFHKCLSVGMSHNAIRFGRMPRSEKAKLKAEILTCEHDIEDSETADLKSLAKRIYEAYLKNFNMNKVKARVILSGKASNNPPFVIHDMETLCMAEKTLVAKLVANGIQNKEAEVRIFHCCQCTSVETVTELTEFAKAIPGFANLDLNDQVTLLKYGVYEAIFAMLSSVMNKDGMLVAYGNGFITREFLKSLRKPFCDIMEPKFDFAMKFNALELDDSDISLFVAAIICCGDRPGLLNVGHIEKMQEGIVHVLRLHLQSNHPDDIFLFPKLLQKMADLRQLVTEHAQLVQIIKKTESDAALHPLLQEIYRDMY
assay comment: Agonist activity at human PPARalpha by transactivation assay
pEC50: −log10 of the molar value.

>>> result("Cc1ccc(-c2ccc(/C(C#Cc3ccccc3)=C/COc3ccc(OCC(=O)O)c(C)c3)cc2)s1")
"< 5.00"
>>> result("Cc1ccc(C#CC(/C=C\\COc2ccc(OCC(=O)O)c(C)c2)c2ccc(Br)cc2)s1 (stereo not drawn)")
"< 5.00"

Please look at the following compound next.
Req: Requested read-out: pEC50. Entry: Cc1cc(OC/C=C\C(C#Cc2ccccn2)c2ccc(Br)cc2)ccc1OCC(=O)O (stereo not drawn)
Resp: < 5.00

Source: ChEMBL document CHEMBL1149551
